- assay_target: human αVβ6 integrin on cells (human, UniProt P06756 31-1048; P18564 22-788)
- Sequence (P06756 31-1048, chain 1 of 2): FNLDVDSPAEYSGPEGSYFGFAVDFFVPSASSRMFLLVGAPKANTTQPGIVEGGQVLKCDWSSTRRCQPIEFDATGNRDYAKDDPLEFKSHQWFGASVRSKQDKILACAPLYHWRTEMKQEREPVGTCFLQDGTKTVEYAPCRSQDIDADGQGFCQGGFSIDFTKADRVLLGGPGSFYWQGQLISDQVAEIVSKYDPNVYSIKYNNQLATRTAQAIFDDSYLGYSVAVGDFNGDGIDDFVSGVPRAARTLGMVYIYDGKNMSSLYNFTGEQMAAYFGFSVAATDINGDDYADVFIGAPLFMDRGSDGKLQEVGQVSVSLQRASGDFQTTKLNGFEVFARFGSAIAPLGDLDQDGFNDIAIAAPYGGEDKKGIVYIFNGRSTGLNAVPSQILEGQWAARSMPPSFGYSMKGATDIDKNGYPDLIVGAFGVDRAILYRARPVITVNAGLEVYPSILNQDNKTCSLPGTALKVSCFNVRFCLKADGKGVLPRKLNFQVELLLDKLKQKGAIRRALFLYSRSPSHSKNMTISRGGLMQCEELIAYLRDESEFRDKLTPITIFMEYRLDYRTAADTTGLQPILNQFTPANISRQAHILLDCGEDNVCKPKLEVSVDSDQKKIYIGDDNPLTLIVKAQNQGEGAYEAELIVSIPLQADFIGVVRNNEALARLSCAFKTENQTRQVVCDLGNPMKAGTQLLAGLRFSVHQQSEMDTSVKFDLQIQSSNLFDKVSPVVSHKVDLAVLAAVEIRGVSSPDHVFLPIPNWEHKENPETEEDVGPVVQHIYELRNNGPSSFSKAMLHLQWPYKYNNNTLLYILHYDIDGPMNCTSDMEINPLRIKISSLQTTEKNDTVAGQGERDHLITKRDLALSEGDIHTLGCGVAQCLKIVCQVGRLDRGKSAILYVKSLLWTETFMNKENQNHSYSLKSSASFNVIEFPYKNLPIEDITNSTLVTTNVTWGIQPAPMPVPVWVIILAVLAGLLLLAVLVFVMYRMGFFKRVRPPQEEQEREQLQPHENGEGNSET
- Sequence (P18564 22-788, chain 2 of 2): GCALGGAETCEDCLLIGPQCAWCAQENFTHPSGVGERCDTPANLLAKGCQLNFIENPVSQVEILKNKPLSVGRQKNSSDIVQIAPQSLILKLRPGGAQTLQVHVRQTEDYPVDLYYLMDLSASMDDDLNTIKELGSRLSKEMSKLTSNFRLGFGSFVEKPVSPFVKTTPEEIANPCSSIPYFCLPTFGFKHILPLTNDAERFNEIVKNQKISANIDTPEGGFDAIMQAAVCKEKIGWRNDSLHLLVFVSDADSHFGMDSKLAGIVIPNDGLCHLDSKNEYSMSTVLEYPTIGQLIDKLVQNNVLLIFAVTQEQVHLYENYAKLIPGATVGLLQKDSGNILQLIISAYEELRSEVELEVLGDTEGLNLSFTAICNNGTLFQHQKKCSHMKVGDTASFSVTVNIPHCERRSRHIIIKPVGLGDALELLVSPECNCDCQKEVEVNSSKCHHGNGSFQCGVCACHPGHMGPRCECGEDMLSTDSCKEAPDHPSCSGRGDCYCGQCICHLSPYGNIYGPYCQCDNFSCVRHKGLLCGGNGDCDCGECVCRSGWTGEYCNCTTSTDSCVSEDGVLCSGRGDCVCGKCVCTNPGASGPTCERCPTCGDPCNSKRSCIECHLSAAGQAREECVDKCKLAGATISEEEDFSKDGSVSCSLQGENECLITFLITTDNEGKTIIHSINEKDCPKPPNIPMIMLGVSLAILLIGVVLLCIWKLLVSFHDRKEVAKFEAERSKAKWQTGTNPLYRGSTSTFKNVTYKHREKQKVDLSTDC
- assay_summary: cell-based or functional assay
measurement_name: Assay 2 % Inhibition of adhesion (%)
Answer format: numeric, % implied, no suffix.

Value of measured Assay 2 % Inhibition of adhesion for the entry sc 254 (antibody, V domains shown, kappa light chain) VH: QVQLQESGPGLVKPSQTLSLTCTVSGGSISSGGYYWSWIRQHPGKGLEWIGYIYYSGSTYYNPSLKSRVTISVDTSKNQFSLKLSSVTAADTAMYYCARYRGPAAGRGDFYYFGMDVWGQGTTVTVSS VL: DIVMTQTPLSLSVTPGQPASIFCKSSQSLLNSDGKTYLCWYLQKPGQPPQLLIYEVSNRFSGVPDRFSGSGSGTDFTLKISRVEAEDVGVYYCMQGIQLPWAFFGQGTKVEIK : 106
